- experiment: Selectivity index, ratio of CC50 for rat L6 cels to IC50 for erythrocytic stage of Plasmodium falciparum K1
- Type: toxicity
- conditionSummary: L6 cells, read-out: Ratio IC50
The threshold is 20. Values of selectivity ratio beneath it are tagged satisfied; values meeting or exceeding it are tagged not satisfied.

compound	assignedCategory
Clc1ccc(C(c2c[nH]cc2-c2ccc(Cl)cc2-n2cccc2)n2ccnc2)c(Cl)c1 (stereo not drawn)	satisfied
Cn1cc(C(c2ccc(Cl)cc2)n2ccnc2)cc1-c1ccc(Cl)cc1 (stereo not drawn)	satisfied
Clc1ccc(C(c2c[nH]cc2-c2ccc(Cl)cc2-c2ccccc2)n2ccnc2)cc1 (stereo not drawn)	not satisfied
C[C@@H]1CC[C@H]2[C@@H](C)C(=O)O[C@@H]3O[C@@]4(C)CC[C@@H]1[C@]32OO4	not satisfied
COc1ccc(-c2c[nH]cc2C(c2ccc(Cl)cc2Cl)n2ccnc2)cc1 (stereo not drawn)	not satisfied
C=CCn1cc(C(c2ccc(Cl)cc2)n2ccnc2)cc1-c1ccc(Cl)cc1 (stereo not drawn)	satisfied
FC(F)(F)c1ccc(-n2ccc(C(c3ccc(Cl)cc3)n3ccnc3)c2)cc1 (stereo not drawn)	not satisfied
N#Cc1ccc(C(c2ccn(-c3ccc(Cl)cc3)c2)n2ccnc2)cc1 (stereo not drawn)	satisfied
Clc1ccc(C(c2c[nH]cc2-c2ccc(Cl)cc2-c2ccccc2)n2ccnc2)c(Cl)c1 (stereo not drawn)	not satisfied
CCc1ccc(-c2c[nH]cc2C(c2ccc(Cl)cc2Cl)n2ccnc2)cc1 (stereo not drawn)	not satisfied
Clc1ccc(C(c2c[nH]cc2-c2ccc(Cl)c3ccccc23)n2ccnc2)c(Cl)c1 (stereo not drawn)	satisfied
Clc1ccc(C(c2c[nH]cc2-c2ccc3ccccc3c2)n2ccnc2)c(Cl)c1 (stereo not drawn)	satisfied
Clc1ccc(-c2c[nH]cc2[C@@H](c2ccc(Cl)cc2Cl)n2ccnc2)cc1	not satisfied
O=[N+]([O-])c1ccc(-n2ccc(C(c3ccc(Cl)cc3)n3ccnc3)c2)cc1 (stereo not drawn)	satisfied
Cc1ccc(-c2c[nH]cc2C(c2ccc(Cl)cc2Cl)n2ccnc2)cc1 (stereo not drawn)	not satisfied
CS(=O)(=O)c1ccc(-c2c[nH]cc2C(c2ccc(Cl)cc2Cl)n2ccnc2)cc1 (stereo not drawn)	not satisfied
Clc1ccc(-c2c[nH]cc2[C@H](c2ccc(Cl)cc2Cl)n2ccnc2)cc1	not satisfied
CC(C)c1ccc(-c2c[nH]cc2C(c2ccc(Cl)cc2Cl)n2ccnc2)cc1 (stereo not drawn)	not satisfied
O=[N+]([O-])c1ccc(C(c2ccn(-c3ccc([N+](=O)[O-])cc3)c2)n2ccnc2)cc1 (stereo not drawn)	not satisfied
O=[N+]([O-])c1ccc(-n2ccc(C(c3ccccc3)n3ccnc3)c2)cc1 (stereo not drawn)	satisfied
N#Cc1ccc(C(c2ccn(-c3ccc(C#N)cc3)c2)n2ccnc2)cc1 (stereo not drawn)	not satisfied
Clc1ccc(-c2cc(C(c3ccc(Cl)cc3)n3ccnc3)c[nH]2)cc1 (stereo not drawn)	satisfied
Clc1ccc(C(c2c[nH]cc2-c2ccc(Cl)cc2-c2cccs2)n2ccnc2)c(Cl)c1 (stereo not drawn)	satisfied
